target.or.system: isolated human 20S proteasome, T-L activity (Homo sapiens, UniProt P49720+Q99436)
Construct: human purified erythrocyte-derived 20S proteasome; purchased Enzo Life Sciences, Inc; host or cells: human erythrocytes (natural source)
assay.notes: Proteasome inhibition assay in isolated human 20S proteasomes (Proteasome-Glo), T-L activity
Format: biochemical
settings: mean ± SD
test.readout: IC50 (µM)

mol: O=C1c2ccccc2C(=O)c2c(Nc3ccc(S(=O)(=O)N(CCO)CCO)cc3)ccc(O)c21
measurement.units: µM
IC50: 25.8

P: Cc1ccc(/C(=N/NS(=O)(=O)c2ccc([N+](=O)[O-])cc2)Sc2cc(Cl)c(C)cc2S(N)(=O)=O)cc1
Q: C#CCCN1CCN(c2ccc(-n3c(=O)ccc4cnc5ccc(-c6ccc(N)nc6)cc5c43)cc2C(F)(F)F)CC1
Determine, for P and Q , which has the greater value of IC50. Record your answer as the label of the chosen record. Q
(Q: 48.4 µM, P: 27.5 µM)
